- method_description: Cytotoxicity against mouse J774.A1 cells assessed as cell viability at 100 ug/ml measured after 24 hrs by CCK8 assay relative to control
- Format: cell-based
- condition_notes: at 100 µg/mL, read-out: Activity
Would you mind telling me the reported viability at 24 h, 100 ug/ml of each entry?
One number for each entry, in %.

compound	quantity_measured	endpoint_unit	reported_value
CN[C@H](CC(C)C)C(=O)N[C@H]1C(=O)N[C@@H](CC(N)=O)C(=O)N[C@H]2C(=O)N[C@H]3C(=O)N[C@H](C(=O)N[C@H](C(=O)O)c4cc(O)cc(O)c4-c4cc3ccc4O)[C@H](O)c3ccc(c(Cl)c3)Oc3cc2cc(c3O[C@@H]2O[C@H](CO)[C@@H](O)[C@H](O)[C@H]2O[C@H]2C[C@](C)(N)[C@H](O)[C@H](C)O2)Oc2ccc(cc2Cl)[C@H]1O	viability at 24 h, 100 ug/ml	%	89.9

Q: What does the record list as viability at 24 h, 100 ug/ml for CC(C)=CCn1c2ccccc2c2c(OCC(O)CNC(=N)N)cccc21 (configuration not stated) ?
Ans: 20.5

* * *

- method_description: Cytotoxicity against mouse J774.A1 cells assessed as cell viability at […] ug/ml measured after 24 hrs by CCK8 assay relative to control
- Assay type: cell-based
- condition_notes: dose 1.56 µg/ml, read-out: Activity
Would you mind telling me the reported viability at 24 h, 1.56 ug/ml of each entry?
Answers are plain numbers, in %.

compound	quantity_measured	reported_value
CC(C)=CCn1c2ccccc2c2c(OCC(O)CNC(=N)N)cccc21 (configuration not stated)	viability at 24 h, 1.56 ug/ml	96.3

Q: What does the record list as viability at 24 h, 1.56 ug/ml for CN[C@H](CC(C)C)C(=O)N[C@H]1C(=O)N[C@@H](CC(N)=O)C(=O)N[C@H]2C(=O)N[C@H]3C(=O)N[C@H](C(=O)N[C@H](C(=O)O)c4cc(O)cc(O)c4-c4cc3ccc4O)[C@H](O)c3ccc(c(Cl)c3)Oc3cc2cc(c3O[C@@H]2O[C@H](CO)[C@@H](O)[C@H](O)[C@H]2O[C@H]2C[C@](C)(N)[C@H](O)[C@H](C)O2)Oc2ccc(cc2Cl)[C@H]1O ?
Ans: 101

* * *

- System: Staphylococcus aureus
- method_description: Antibacterial activity against Staphylococcus aureus ATCC 29213 measured after 24 hrs by microplate reader analysis
- Type: functional
quantity_measured: MIC (µg/mL)
Answers are plain numbers, in µg/mL.

compound	reported_value
CC(C)=CCn1c2ccccc2c2c(OCC(O)CN3CCCC3)cccc21 (centres undefined)	12.5

Parameter requested: MIC. Apply to each item below.
1. CC(C)=CCn1c2ccccc2c2c(OCC(O)CN(C)C)cccc21 (centres undefined)
2. CCCCCCCCCn1c2ccccc2c2c(OCC(O)CN(C)C)cccc21 (centres undefined)

Ans:
[6.25, 12.5]

Parameter requested: MIC. Apply to each item below.
1. CC(C)=CCn1c2ccccc2c2c(OCC(O)CN(CCO)CCO)cccc21 (centres undefined)
2. CN[C@H](CC(C)C)C(=O)N[C@H]1C(=O)N[C@@H](CC(N)=O)C(=O)N[C@H]2C(=O)N[C@H]3C(=O)N[C@H](C(=O)N[C@H](C(=O)O)c4cc(O)cc(O)c4-c4cc3ccc4O)[C@H](O)c3ccc(c(Cl)c3)Oc3cc2cc(c3O[C@@H]2O[C@H](CO)[C@@H](O)[C@H](O)[C@H]2O[C@H]2C[C@](C)(N)[C@H](O)[C@H](C)O2)Oc2ccc(cc2Cl)[C@H]1O
3. CC(C)=CCn1c2ccccc2c2c(OCC(O)CNC(=O)[C@@H](N)CCCCN)cccc21 (some centres undefined)

Ans:
25
0.78
25

Parameter requested: MIC. Apply to each item below.
1. CC[N+](C)(CC)CC(O)COc1cccc2c1c1ccccc1n2CC=C(C)C.[I-] (centres undefined)
2. CCN(CC)CC(O)COc1cccc2c1c1ccccc1n2CC=C(C)C (centres undefined)
3. CCCCCn1c2ccccc2c2c(OCC(O)CN(C)C)cccc21 (centres undefined)
4. CC(C)=CCn1c2ccccc2c2c(OCC(O)CN3CCN(C)CC3)cccc21 (centres undefined)
5. CC(C)=CCn1c2ccccc2c2c(OCC(O)CN3CCCCC3)cccc21 (centres undefined)

Ans:
[6.25, 12.5, 12.5, 12.5, 6.25]

Parameter requested: MIC. Apply to each item below.
1. CCCCCCCn1c2ccccc2c2c(OCC(O)CN(C)C)cccc21 (centres undefined)
2. CCCCCNCC(O)COc1cccc2c1c1ccccc1n2CC=C(C)C (centres undefined)

Ans:
1: 6.25; 2: 12.5
